System: HOP-92 NSCLC
assay_procedure: NCI-60 one-dose screen, 48 h
cond: 10 µM unless noted
The panel holds about 83,000 compounds, 20% with a hit somewhere; the sample as a whole holds those more often. Active and inactive are the calls of the source. Rule for the calls: active = growth percent below 10; inactive = the rest.
// allowed return values: true (1) = active, false (0) = inactive

compound	assigned_class
Cn1ncc2c(C(=O)c3ccc(F)cc3)nc(C(C)(C)C)nc21	false (0)
O=C(CSc1nnc(-c2ccc(Cl)cc2)n1-c1ccccc1)Nc1ccc(Cl)cc1	true (1)
O=S(=O)(NCCCNc1nccc(-c2[nH]c(-c3ccccc3)nc2-c2ccc(F)c(O)c2)n1)c1cccc2ccccc12	false (0)
O=C(CCCCCCNC(=O)C(O)(O)C(F)(F)F)Nc1ncc(-c2ccc(Br)cc2)s1	true (1)
Brc1ccc(-c2cc(-c3ccc4c(c3)OCCO4)n[nH]2)s1	false (0)

So what was the verdict on `O=c1nc(Nc2ccc([N+](=O)[O-])cc2O)sc2ccccc12` in this test?
true (1)

Same question, `O=S(=O)(Oc1ccc(-c2cn3ccoc3n2)cc1)C1CCCCC1` this time
false (0)

Same question, `COc1ccc(OC)c(CCn2cncc2-c2c[nH]c3ccc(Cl)cc23)c1` this time
false (0)

---

Test system: DU-145 prostate
assay_procedure: NCI-60 one-dose screen, 48 h (100 = growth as untreated, 0 = no growth, -100 = all killed)
cond: 10 µM unless noted
This is part of a sample that, as a whole, favours compounds with a hit. Of some 83,000 tested, about 20% had one in any assay. Activity calls are given as the source filed them. The calls were made as follows: active = growth percent below 10; inactive = the rest.
Answer each item with its documented growth.

structure_as_smiles	growth
COc1ccc(OC)c(CCn2cncc2-c2c[nH]c3ccc(Cl)cc23)c1	60.5% (inactive)

Look up growth for the entries below, preserving their order.
1. O=C1Nc2ccccc2/C1=N\c1nnc(-c2ccccc2)o1
2. CN(C)CC(=O)Nc1nc(-c2cccc(NS(=O)(=O)c3cccc4c(N(C)C)cccc34)c2)cs1
3. COc1ccc([C@@H]2C(=O)N(c3cc(OC)c(OC)c(OC)c3)[C@H]2c2ccc(OC)c(O)c2)cc1
4. Clc1ccc2[nH]cc(-c3nn4cc(-c5cccnc5)nc4s3)c2c1
5. CC(C)(C)Nc1nc2c(OCCc3ccccc3)cccn2c1-c1cccc(Oc2ccccc2)c1
6. CCc1nnc(NC(=O)c2cc(-c3ccc(Cl)cc3Cl)oc2C)s1
7. O=C(CSc1nnc(-c2cccs2)n1-c1ccccc1)Nc1ccccc1
8. COc1cc(C(C)=C(c2ccc(OCCN(C)C)cc2)c2ccc(OCCN(C)C)cc2)ccc1F

107% (inactive)
103% (inactive)
10.9% (inactive)
107% (inactive)
25.5% (inactive)
93.5% (inactive)
83.3% (inactive)
102% (inactive)

Look up growth for the entries below, preserving their order.
1. COc1cc2cc(Oc3ccc(NC(=O)Nc4ccc(F)c(C(F)(F)F)c4)cc3)c(C)nc2cc1OCCN(C)C
2. Fc1ccc(-c2cn3c(-c4c[nH]c5ccc(Br)cc45)csc3n2)cc1
3. NS(=O)(=O)c1nnc(/N=C/c2c(O)[nH]c3ccccc23)s1

1. 106% (inactive)
2. 67.4% (inactive)
3. 114% (inactive)

Look up growth for the entries below, preserving their order.
1. Clc1ccc(CSc2nnc(-c3ccc(Cl)cc3)n2-c2ccccc2)cc1
2. Cc1c(C(=O)/C=C/c2ccc(Cl)cc2)nnn1-c1ccc2oc(=O)ccc2c1
3. Cc1csc(/N=C(N)/N=C(\N)c2cccc(Br)c2)n1
4. O=C(CCCCCCNC(=O)C(O)(O)C(F)(F)F)Nc1ccc(Cl)cc1

["95.8% (inactive)", "104% (inactive)", "105% (inactive)", "17.6% (inactive)"]

---

Tested on: MALME-3M melanoma
assay_procedure: NCI-60 one-dose screen, 48 h (100 = growth as untreated, 0 = no growth, -100 = all killed)
cond: 10 µM unless noted
This is part of a sample that, as a whole, favours compounds with a hit. Of some 83,000 tested, about 20% had one in any assay.
recorded_metric: growth (%)
Numbers only, in %.

// below: answered compounds
> print(dat)
                        structure.as.smiles  recorded.metric  value.observed
1  O=C(Nc1cccc(C(F)(F)F)c1)N1CCN(c2cc(-c3cn(-c4ccccc4)nc3-c3cccc(O)c3)ccn2)CC1           growth            46.3
2  CS(=O)(=O)c1ccc(/C(=N/N=C(N)N)c2ccc(Cl)cc2)cc1           growth            81.6
3  CCCc1[nH]c(-c2cc(N)ccc2Cl)c2c1C(=O)CCCC2           growth            93.7
4  CCc1cc2c(cc1Cl)nc1c(=O)[nH]c(=O)nc-1n2CCOCC(C)C           growth            2.24

Shift focus to the following entry.
Bench note: what growth did `COc1ccccc1N1CCN(C2=C(Cl)C(=O)c3ncccc3C2=O)CC1` show?
58.8

---

Test system: HCC-2998 colon
assay_procedure: NCI-60 one-dose screen, 48 h (100 = growth as untreated, 0 = no growth, -100 = all killed)
cond: 10 µM unless noted
The panel holds about 83,000 compounds, 20% with a hit somewhere; the sample as a whole holds those more often.
So basically, if growth comes in under 60% it's true, and if it's 60% or more it's false.

> print(dat)
                        structure.as.smiles  assigned.class
1  O=[N+]([O-])c1ccc(NC(=S)NNC(=S)Nc2ccc(Br)cc2)cc1            true
2  Cc1ccc2c(n1)C(=O)C(Cl)=C(Nc1cc(C(F)(F)F)cc(C(F)(F)F)c1)C2=O           false
3                C=C1CCc2nc(SCC(=O)O)ccc2N1           false

Turning to the following compound.
# check: growth < 60% for `Cc1[nH]c(C(=O)Nc2ccc(C(=O)NCC3CCNCC3)cc2OC(C)C)c(Cl)c1Cl`
true

---

Test system: MDA-MB-435 melanoma
assay_procedure: NCI-60 one-dose screen, 48 h (100 = growth as untreated, 0 = no growth, -100 = all killed)
cond: 10 µM unless noted
This is part of a sample that, as a whole, favours compounds with a hit. Of some 83,000 tested, about 20% had one in any assay.
So basically, if growth comes in under 60% it's label 1, and if it's 60% or more it's label 0.

> print(dat)
                                   compound        tested.system  assigned.class
1                    Cc1cc(=O)[nH]c(O)c1C#N  MDA-MB-435 melanoma         label 0
2  CN1CCN(Cc2ccc(NC(=O)c3cncc(C#Cc4cnc5ccc(OCC(F)F)nn45)c3)cc2C(F)(F)F)CC1  MDA-MB-435 melanoma         label 1
3        O=C(O)CC1CCN(c2ccc3nnc(Cl)n3n2)CC1  MDA-MB-435 melanoma         label 0
4        O=C1C(SCc2ccccc2)=C(Cl)CN1c1ccccc1  MDA-MB-435 melanoma         label 0
5  CCOC(=O)C1=C(C)NC(C)=C(C(=O)OCc2ccccc2)C1c1cccc(C#N)c1 (centres undefined)  MDA-MB-435 melanoma         label 1
6  O=C(CSc1nc2ccccc2c(=O)n1-c1ccc(S(=O)(=O)Nc2ccc(Cl)nn2)cc1)Nc1ccc(S(=O)(=O)Nc2ccc(Cl)nn2)cc1  MDA-MB-435 melanoma         label 0
7  C[C@]12CC[C@H]3[C@@H](CC=C4C[C@@H](O)CC[C@@]43C)[C@@H]1CC[C@@H]2[C@](C)(O)CCc1cccnc1  MDA-MB-435 melanoma         label 0
8            C#Cc1nc(/C=C/CCCCCCC(=O)NO)cs1  MDA-MB-435 melanoma         label 1

# check: growth < 60% for `C#CCOc1cccc(/C(N)=N/C(N)=N/c2nc3ccccc3s2)c1`
label 0

Same question, CCOP(=O)(OCC)OC[C@]12CCC(C)(C)CC1C1=CC[C@@H]3[C@@]4(C)CCCNC(C)(C)[C@@H]4CC[C@@]3(C)[C@]1(C)CC2 (some centres undefined) this time
label 0

Same question, `COc1ccc([C@H]2C(=O)N(c3cc(OC)c(OC)c(OC)c3)[C@@H]2c2ccc(OC)c(O)c2)cc1` this time
label 1

Same question, `CNC(=O)c1cc(-c2ccc(NC(=S)Nc3cccc(C(F)(F)F)c3)cc2)nc2cccnc12` this time
label 0

Same question, `Cn1c(SCC(=O)c2ccc(F)cc2)nc2ccccc2c1=O` this time
label 0

---

System: HS 578T breast
assay_procedure: NCI-60 one-dose screen, 48 h (100 = growth as untreated, 0 = no growth, -100 = all killed)
cond: 10 µM unless noted
Compounds without any hit were thinned out: in the full panel of roughly 83,000, 20% have a hit.
Answer each item with its documented growth.
Numbers only, in %.

// below: answered compounds
> print(dat)
                                   compound   tested.system  units.of.measure  value.observed
1  Cc1[nH]c(C(=O)Nc2ccccc2OCc2cccc(C(=O)NC3CCCNC3)c2)c(Cl)c1Cl (centres undefined)  HS 578T breast                 %              93
2  O=C(CCCCCCN1CC(=O)N2[C@@H](c3ccc(Cl)s3)c3[nH]c4ccccc4c3C[C@H]2C1=O)NO  HS 578T breast                 %            65.5

Look up growth for the entries below, preserving their order.
1. CC1=Cc2ccccc2OC12C=Cc1ccccc1O2 (centres undefined)
2. O=S(=O)(Oc1ccc(-c2cn3ccsc3n2)cc1)c1cccc(C(F)(F)F)c1

106
102

Look up growth for the entries below, preserving their order.
1. CC(=C(c1ccc(OCCN(C)C)cc1)c1ccc(OCCN(C)C)cc1)c1ccc(Cl)cc1
2. COc1ccc2[nH]cc(-c3nn4cc(-c5ccncc5)nc4s3)c2c1

[-32.5, 87.5]

Look up growth for the entries below, preserving their order.
1. Cc1cc2nc(C(Cl)Cl)nc(-c3ccc(S(=O)(=O)N(C)C)cc3)n2n1
2. Cn1cc(-c2cc3ncnc(Nc4ccc(NC(=O)Nc5cc(C(C)(C)C)on5)cc4)c3s2)cn1

72.7
14.9

Bench note: what growth did `NS(=O)(=O)c1ccc(Nc2nc(N/N=C/C=C/c3ccccc3)nc(Nc3ccccc3)n2)cc1` show?
39.7
